Attribution: the supplement of paper PMC10724198

Catalogue of protein stability index values
# Test system: Saccharomyces cerevisiae;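 also: PSI is a weighted mean of sequencing reads over stability bins, variants kept only with over 10 reads, mCherry proximal and sfGFP distal, peptide attached via GGGS linker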
# experimental protocol: protein stability index of tFT-peptide fusion (C-terminal peptide) (PSI (0-1 scale)); higher = more stable (slower turnover)
# assay conditions: genetic background: wild type; temperature: 30 C
Lab note: jot down the number only; don't add units.

Answered cases to consult:
1) RGFIYCSFVVRL 0.33
2) SLRICACMTVSW 0.353
3) YLAGPLARLRKF 0.749
4) GFSPLFVLVFGV 0.311
5) AKVSFYALARQY 0.355
6) RSKWEKLDKIVS 0.396
7) SCLLVVVSTSGN 0.406
8) SFGLICFLILCG 0.205
9) YHFSLFFPLSLP 0.383
10) SDGGVVRGGCRG 0.512

Input: Please give measured protein stability index of the following entry: `RYRVRIVVFGLV`
Output: 0.088

Input: Respond only with protein stability index recorded for `FVSSLLPLLTLL`
Output: 0.141

Input: Give me measured protein stability index, please, for this sequence: `RRGLIFFLCCPA`
Output: 0.332
